Please respond with reported viability at 48 h, 25 ug for every item in the list.
assay: Growth inhibition of human HEK293 cells assessed as cell viability at 25 ug incubated for 48 hrs by MTT assay relative to control; assay type: cell-based; conditions: read-out: Activity
// return numeric value only (unit: %, not printed)

Data request: # return recorded viability at 48 h, 25 ug for input CC(=O)C1=C(C)Nc2nc3ccccc3n2C1c1ccc2c(c1)OCO2 (racemic)
Data returned: 48.6

Data request: # return recorded viability at 48 h, 25 ug for input CC1(C)CC(=O)C2=C(C1)NC(=O)NC2c1ccc2c(c1)OCO2 (racemic)
Data returned: 50.9

Data request: # return recorded viability at 48 h, 25 ug for input CC(=O)N1C(=S)NC(C)=C(C(=O)OCc2ccccc2)C1c1ccc2c(c1)OCO2 (racemic)
Data returned: 50
